# System: Escherichia coli
# PROTOCOL: Antibacterial activity against Escherichia coli ATCC 25668
# Type: functional
OUTCOME_MEASURE: MIC

Cc1ccc(NCc2ccc3cc2OCC#C/C=C\C#CCO3)cc1 :: 4 µg/mL
OCc1ccc2cc1OCC#C/C=C\C#CCO2 :: 8 µg/mL
O=Cc1ccc2cc1OCC#C/C=C\C#CCO2 :: 256 µg/mL
C#CCOc1cccc(OCC#C)c1 :: > 1000 µg/mL
Clc1ccc(NCc2ccc3cc2OCC#C/C=C\C#CCO3)cc1 :: 64 µg/mL
C1#CCOc2ccc(/C=N/c3ccccc3)c(c2)OCC#C/C=C\1 :: 128 µg/mL
C1#CCOc2cccc(c2)OCC#C/C=C\1 :: 4 µg/mL
Cc1ccc(/N=C/c2ccc3cc2OCC#C/C=C\C#CCO3)cc1 :: 256 µg/mL
C1#CCOc2ccc(CNc3ccccc3)c(c2)OCC#C/C=C\1 :: 4 µg/mL
Brc1ccc(NCc2ccc3cc2OCC#C/C=C\C#CCO3)cc1 :: 128 µg/mL
CN(C)[C@@H]1C(O)=C(C(N)=O)C(=O)[C@@]2(O)C(O)=C3C(=O)c4c(O)cccc4[C@@](C)(O)[C@H]3C[C@@H]12 [TETRACYCLINE] :: 2 µg/mL
C#CCOc1ccc(C=O)c(OCC#C)c1 :: > 1000 µg/mL
